Data credit: ChEMBL document CHEMBL1157539

Could you please report measured Inhibition for the items listed next?
system: HepG2; test: GSK_TCMDC: Percent inhibition of human HepG2 cell line. Test compounds present at 10uM.; type: functional
Numbers only, in %.

Challenge: What measured Inhibition goes with "Cc1ncccc1C(=O)Nc1ccc(-c2cccc(-c3nc4cccc(C)c4[nH]3)c2)cc1" ?
Response given: 6

Challenge: What measured Inhibition goes with "CCCCN(CCCC)/C(=N/c1cccc(Cl)c1Cl)Nc1ccc(C#N)cc1O" ?
Response given: 4

Challenge: What measured Inhibition goes with "NC(=O)C1CCN(Cc2ccc(-c3ccc(-c4nc5cc(C(F)(F)F)ccc5[nH]4)s3)cc2)CC1.O=C(O)C(F)(F)F" ?
Response given: 22

---
Challenge: What measured Inhibition goes with "Oc1cccc(-c2nc(-c3ccccc3)c(-c3ccc(Oc4ccc(-c5[nH]c(-c6cccc(O)c6)nc5-c5ccccc5)cc4)cc3)[nH]2)c1" ?
Response given: 6

====

system: HepG2; test: GSK_TCMDC: Percent inhibition of human HepG2 cell line. Test compounds present at 10uM.; format: functional
readout: Inhibition (%)
One number for each entry, in %.

Worked cases, Inhibition given:
Challenge: What measured Inhibition goes with "Cc1ccc(CN2CCN(Cc3cccc(NC(=O)c4cccs4)c3)CC2)cc1C.O=C(O)C(F)(F)F" ?
Response given: 41

Challenge: What measured Inhibition goes with "CCOC(=O)c1ccc(NC(=O)Nc2cccc(-c3cccc(-c4nc5cc(F)ccc5[nH]4)c3)c2)cc1" ?
Response given: 85

Challenge: What measured Inhibition goes with "N#Cc1ccc(-c2ccc(C(=O)NC3CCN(CCN4CCc5c(cccc5C(F)(F)F)C4)CC3)cc2)cc1" ?
Response given: 40

Field: next compound
Challenge: What measured Inhibition goes with "CC(C)CNCc1cccc(-c2cccc(CNc3ccc4ncccc4c3)c2)c1.O=C(O)C(F)(F)F" ?
Response given: 23

====

Could you please report measured Inhibition for the items listed next?
tested on: Plasmodium falciparum; experiment: GSK_TCMDC: Inhibition of Plasmodium falciparum 3D7 in whole red blood cells, using parasite LDH activity as an index of growth. Test compounds present at 2uM; type: functional
Give bare numbers, in %.

Challenge: What Inhibition appears in the records for this molecule with Plasmodium falciparum? "COc1ccc2nccc([C@@H](O)CN3CCC(NCC(=O)Nc4cc(F)cc(F)c4)CC3)c2n1.O=C(O)C(=O)O"
Response given: 89

Challenge: What Inhibition appears in the records for this molecule with Plasmodium falciparum? Cc1c(S(=O)(=O)Nc2ccc3nccc(N4CC(C)NC(C)C4)c3c2)sc2ccc(Cl)cc12.Cl (centres undefined)
Response given: 92

Challenge: What Inhibition appears in the records for this molecule with Plasmodium falciparum? "CN(C)Cc1cccc(-c2ccc(NC(=O)c3ccc4c(=O)n(CCN5CCCCC5)cnc4c3)cc2)c1"
Response given: 100

Challenge: What Inhibition appears in the records for this molecule with Plasmodium falciparum? "CCCCNc1nc(NCCCC)c2c(C)c(Cc3ccccc3)c(NCCCC)nc2n1.Cl"
Response given: 95

Challenge: What Inhibition appears in the records for this molecule with Plasmodium falciparum? "Nc1nccc2ccc(-c3cccc4ncccc34)cc12.O=C(O)C(F)(F)F"
Response given: 98

For every listed record, write down its Inhibition.
1. O=C(Nc1ccc2[nH]c(-c3ccccc3)nc2c1)c1cc(-c2ccc3c(c2)OCCO3)n[nH]1.O=C(O)C(F)(F)F
2. CC(=O)Nc1nc(C(=O)Nc2ccc(-c3cccc(-c4nc5cc(F)ccc5[nH]4)c3)cc2)cs1
3. CCN1CCN(c2cc(C)c3cc(NC(=O)c4cccc(Cl)c4)ccc3n2)CC1
4. NC(=O)CCC(NC(=O)CNC(=O)Nc1cccc(C(F)(F)F)c1)C(=O)O (centres undefined)

Response given:
1. 100
2. 94
3. 100
4. 97

====

test system: Plasmodium falciparum; experiment: GSK_TCMDC: Inhibition of Plasmodium falciparum Dd2 in whole red blood cells, using parasite LDH activity as an index of growth. Test compounds present at 2uM; format: functional
readout: Inhibition (%)
Numbers only, in %.

Worked cases, Inhibition given:
Challenge: What measured Inhibition goes with Cl.O=[N+]([O-])c1ccc(-c2nc3cc(C4=NC5CCCCC5N4)ccc3[nH]2)cc1 (configuration not stated) ?
Response given: 30

Challenge: What measured Inhibition goes with "Cc1cc(NCCCCCCN)nc(Nc2ccc(Cl)cc2)n1" ?
Response given: 26

Challenge: What measured Inhibition goes with "O=C(CCCCCNC(=O)c1ccc(O)c(-c2ccc(Cl)c(Cl)c2)c1)NCCN1CCCCC1" ?
Response given: 1

Challenge: What measured Inhibition goes with "CC(C)CCN1CCCN(Cc2ccc(C(=O)Nc3ccc(F)c(F)c3)cc2)CC1.O=C(O)C(F)(F)F" ?
Response given: 27

Challenge: What measured Inhibition goes with "N=C(N)c1ccc(Oc2ccc(C(=N)N)cc2)cc1.O=S(=O)(O)CCO" ?
Response given: 85

For every listed record, write down its Inhibition.
1. Cc1cc(N[C@@H](CC(C)C)C(=O)NCCc2ccccc2)nc(Nc2ccccc2)n1.O=C(O)C(F)(F)F
2. N#CCCN1CCN(Cc2cccc(-c3ccc(-c4nc5cc(C(F)(F)F)ccc5[nH]4)cc3)c2)CC1.O=C(O)C(F)(F)F
3. N#CC1(c2ccccc2)CCN(c2nc(NCCCN3CCCC3=O)nc(N3CCCC4CCCCC43)n2)CC1 (configuration not stated)
4. COc1ccc(CN(C)CCCc2ccc(NC(=O)c3cccc4c(=O)c5cccc(F)c5[nH]c34)cc2)cc1OC
5. CC1(C)N=C(NC(=O)Nc2ccc([N+](=O)[O-])cc2)N=C(N)N1OCc1cccc2ccccc12
6. O=C(Nc1ccc(F)c(C(F)(F)F)c1)NC1CCN(CCCCCNC(=O)C2CC2c2ccc(Cl)c(Cl)c2)CC1 (configuration not stated)
7. O=C(Nc1cccc(-c2ccc(-c3nc4cc(C(F)(F)F)ccc4[nH]3)s2)c1)c1ccncc1

Response given:
1: 38; 2: 63; 3: 92; 4: 94; 5: 21; 6: 16; 7: 46

====

Could you please report measured Inhibition for the items listed next?
test system: Plasmodium falciparum; assay: GSK_TCMDC: Inhibition of Plasmodium falciparum Dd2 in whole red blood cells, using parasite LDH activity as an index of growth. Test compounds present at 2uM; assay type: functional
Answers are plain numbers, in %.

Challenge: What Inhibition appears in the records for this molecule with Plasmodium falciparum? "CS(=O)(=O)NCCCNCc1cccc(-c2ccc(-c3nc4cc(C(F)(F)F)ccc4[nH]3)cc2)c1.O=C(O)C(F)(F)F"
Response given: 85

Challenge: What Inhibition appears in the records for this molecule with Plasmodium falciparum? "CCc1ccc(NC(=O)c2cccc(CN3CCCN(Cc4cccc(O)c4)CC3)c2)cc1.O=C(O)C(F)(F)F"
Response given: 50

Challenge: What Inhibition appears in the records for this molecule with Plasmodium falciparum? "Cc1cc(NC(=O)c2cccs2)ccc1OC1CCN(Cc2ccc(C#N)cc2)CC1.O=C(O)C(F)(F)F"
Response given: 92

For every listed record, write down its Inhibition.
1. CN1CCN(c2ccnc3cc4ccccc4cc23)CC1
2. O=C(/C=C/c1ccc(Cl)c(Cl)c1)NCCCCCN1CCC(NC(=S)Nc2ccc(Cl)cc2Cl)CC1

Response given:
1. 49
2. 47

====

system: HepG2; assay: GSK_TCMDC: Percent inhibition of human HepG2 cell line. Test compounds present at 10uM.; format: functional
readout: Inhibition (%)
Numbers only, in %.

Worked cases, Inhibition given:
Challenge: What measured Inhibition goes with "CCNc1cc(C(=O)N[C@@H](Cc2ccccc2)[C@H](O)CN[C@@H]2CCc3ccccc32)cc(N2CCCC2=O)c1" ?
Response given: 0

Challenge: What measured Inhibition goes with "CCCCNC(=O)[C@H](CC1CCCCC1)NC(=O)c1ccc(O)c(-c2ccc(OC)cc2)c1" ?
Response given: 0

Challenge: What measured Inhibition goes with "CC(=O)Nc1cccc(C(=O)Nc2nc3ccc(-c4cc(=O)[nH]c(Nc5ccccc5Cl)n4)cc3[nH]2)c1" ?
Response given: 0

Challenge: What measured Inhibition goes with "CCc1ccc(NC(=O)c2ccc(CN3CCCN(Cc4cccc(Cl)c4)CC3)cc2)cc1.O=C(O)C(F)(F)F" ?
Response given: 50

Challenge: What measured Inhibition goes with "COc1ccc(CN(C)CCOc2ccc(NC(=O)c3cccc4c(=O)c5cc(SC)ccc5[nH]c34)cc2)cc1OC" ?
Response given: 67

Challenge: What measured Inhibition goes with "Cc1ccc2nc3c(cc(C(=O)NCc4ccccc4)c(=N)n3CCCn3ccnc3)c(=O)n2c1" ?
Response given: 10

Challenge: What measured Inhibition goes with "Cc1cc(-c2ccc(NC(=O)N3CCc4cc(Br)c(N5CCN(C)CC5)cc43)cc2)cc(C)n1" ?
Response given: 29

Challenge: What measured Inhibition goes with "FC(F)(F)c1ccc2[nH]c(-c3ccc(-c4ccc(CNCCc5ccncc5)cc4)cc3)nc2c1.O=C(O)C(F)(F)F" ?
Response given: 26

For every listed record, write down its Inhibition.
1. O=C(NCc1cccc(F)c1)c1ccc(O)c(-c2cc(Cl)cc(Cl)c2)c1
2. CCC(CC)n1c(C)cc2c3c(N)nc(N)nc3ccc21
3. O=C(Nc1cc(Cl)c(Cl)cc1NC(=O)c1cccc(-c2ccccc2)c1O)c1cccc(-c2ccccc2)c1O
4. O=C(/C=C/c1ccc(Cl)c(Cl)c1)NCCCCCCN1CCN(C(=O)Nc2cc(F)cc(F)c2)CC1

Response given:
0
61
79
23

For every listed record, write down its Inhibition.
1. O=C(Cc1c[nH]cn1)Nc1cccc(-c2ccc(-c3nc4cc(F)ccc4[nH]3)cc2)c1
2. Cc1nnc2c(N(C(=O)NCCc3ccccc3)C(=O)NCCc3ccccc3)cc3cc(Cl)ccc3n12
3. CC(C)Cc1ccc(N2CCN(CCCCNC(=O)c3ccc(NC(=O)c4cc(C(F)(F)F)cc(C(F)(F)F)c4)cc3)CC2)cc1
4. Cc1noc(C)c1-c1ccc2c(Nc3ccccc3C(C)(C)C)c(C(=O)NCc3ccccc3)cnc2c1.Cl
5. c1ccc(-c2csc(Nc3nc4cc5c(cc4s3)OCO5)n2)nc1
6. CN1CCCN(Cc2ccc(-c3cccc(NC(=O)c4cccc(C#N)c4)c3)cc2)CC1.O=C(O)C(F)(F)F

Response given:
[4, 0, 15, 20, 46, 17]

For every listed record, write down its Inhibition.
1. O=c1ccccn1CCCC1CCCCN1 (configuration not stated)
2. O=C(Nc1ccc(-c2nc3ccccc3[nH]2)cc1)c1ccc(S(=O)(=O)N2CCc3ccccc32)cc1
3. COc1ccc(C=NN=c2cc(C)[nH]c3ccc(C)cc23)c2ccccc12.Cl
4. COc1ccccc1N1CCN(Cc2c(O)ccc3cc(Br)ccc23)CC1

Response given:
[0, 32, 28, 8]

For every listed record, write down its Inhibition.
1. COc1cc(C(=O)N2CCOC(CCN3CCC(c4ccc(Cl)cc4)CC3)(c3ccc(Cl)c(Cl)c3)C2)cc(OC)c1OC (configuration not stated)
2. CC(C)(C)c1nn(-c2ccccc2)c2[nH]c(=O)c(CNC3CCCCC3)cc12
3. COc1ccc2nc(/N=C3\NC(c4ccccn4)(c4ccccn4)C(=O)N3C)[nH]c2c1
4. O=C(c1ccc(O)c(-c2cc(Cl)cc(Cl)c2)c1)N1CCCC1
5. Cc1c(CN2CCC(N3CCC(C(=O)NC4CC4)CC3)CC2)[nH]c2c(Cl)cccc12

Response given:
[44, 6, 65, 3, 22]

For every listed record, write down its Inhibition.
1. Cc1cc(C2NC(=O)c3ccccc3N2)c(C)n1-c1ccc2c(c1)OCO2 (configuration not stated)
2. COc1cc(Nc2nccc(N3CCC(NC(=O)C4COc5ccccc5O4)C3)n2)cc(OC)c1OC (configuration not stated)
3. O=C(N[C@@H](Cc1ccccc1)[C@H](O)CNCCC(F)(F)F)c1cccc(OCC2CC2)c1
4. Cc1cc(OCC2CCCO2)c2cc(NC(=O)C(=O)Nc3ccc4nc(C)cc(OCC5CCCO5)c4c3)ccc2n1 (configuration not stated)
5. Cc1ccc(O)cc1Nc1ccnc2cc(-c3cccc(CNCCS(C)(=O)=O)c3)ccc12
6. Cc1cccnc1Nc1nc(-c2ccccn2)cs1

Response given:
1. 13
2. 5
3. 0
4. 7
5. 9
6. 60

For every listed record, write down its Inhibition.
1. O=C(NCCCCN1CCC(c2ccc3c(c2OCC2COCO2)CCCC3)CC1)c1ccc(-c2ccc(C(F)(F)F)cc2)cc1 (configuration not stated)
2. Cn1c(NC(=O)C2CCCN(C(=O)c3ccc(O)c(-c4ccc(Cl)c(Cl)c4)c3)C2)nc2ccccc21 (configuration not stated)
3. CC(C)CCN1C(=O)C(NC(=O)Oc2ccccc2)C(=O)N(CC23CC4CC(CC(C4)C2)C3)c2ccccc21 (configuration not stated)
4. FC(F)(F)c1cccc(N=C(S)NN=Cc2ccccn2)c1

Response given:
1. 91
2. 0
3. 3
4. 29
